B1: PLK2 (parent)
chain: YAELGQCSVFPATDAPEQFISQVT

Variants of: B1
Procedure summary: protein stability index of a GFP-peptide fusion (GPS, HEK-293T) (PSI 1-6); higher = more stable;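 also: lentivirally expressed fusions sorted by FACS into six bins by GFP to DsRed ratio, PSI derived from sequencing read proportions per bin multiplied by bin number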
Measurement conditions: c terminus: a fixed tail appended
Rule: 1 for protein stability index not less than 2, -1 for anything less.

Please review the entries below; each comes with its answer.
>>> group_label("Q22L")
-1
>>> group_label("T13D")
1

Say whether P16E shows protein stability index of 2 or more.
1

Reported protein stability index at or above 2? T24G
1

Check the entry T13M : does protein stability index equal or exceed 2?
1
